Protocol Description: Hygroscopicity experiment (DVS)
Assay type: physicochemical
Condition Context: Cycle 1, target relative humidity 20.0%, 25° C.
Measured Endpoint: % percentage of mass change, Desorption (%)
Kindly answer with a numeric value in %, unit omitted.

Consider the molecule shown here: CS(=O)(=O)O.N#Cc1cc2n(CC(=O)Nc3ccc(F)cn3)c(=O)c3ccc(C(F)(F)F)nc3n2n1 [Methanesulfonate (crystal form A)] What is its recorded % percentage of mass change, Desorption? 0.082

Continuing:
Please look up its % percentage of mass change, Desorption: Cl.N#Cc1cc2n(CC(=O)Nc3ccc(F)cn3)c(=O)c3ccc(C(F)(F)F)nc3n2n1 [Hydrochloride (crystal form A)] 0.313

Now consider CCS(=O)(=O)O.N#Cc1cc2n(CC(=O)Nc3ccc(F)cn3)c(=O)c3ccc(C(F)(F)F)nc3n2n1 [Ethanesulfonate (crystal form A)] . 0.090

Another molecule to check: N#Cc1cc2n(CC(=O)Nc3ccc(F)cn3)c(=O)c3ccc(C(F)(F)F)nc3n2n1.O=S(=O)(O)O [Sulfate (crystal form B)] 0.168

* * *

Item-by-item account of % percentage of mass change, Desorption
Protocol Description: Hygroscopicity experiment (DVS)
Format: physicochemical
Condition Context: Cycle 2, target relative humidity 0.0%, 25° C.

Examples from the recorded data:
Quick check: % percentage of mass change, Desorption of N#Cc1cc2n(CC(=O)Nc3ccc(F)cn3)c(=O)c3ccc(C(F)(F)F)nc3n2n1.O=S(=O)(O)O [Sulfate (crystal form B)] ? −0.051%

Let us now turn to Br.N#Cc1cc2n(CC(=O)Nc3ccc(F)cn3)c(=O)c3ccc(C(F)(F)F)nc3n2n1 [Hydrobromide (crystal form B)] −0.019%

Now give it for Cl.N#Cc1cc2n(CC(=O)Nc3ccc(F)cn3)c(=O)c3ccc(C(F)(F)F)nc3n2n1 [Hydrochloride (crystal form A)] too. −0.062%

Next:
So what does the record say about % percentage of mass change, Desorption for CCS(=O)(=O)O.N#Cc1cc2n(CC(=O)Nc3ccc(F)cn3)c(=O)c3ccc(C(F)(F)F)nc3n2n1 [Ethanesulfonate (crystal form A)] ? −0.016%

# iterate: CS(=O)(=O)O.N#Cc1cc2n(CC(=O)Nc3ccc(F)cn3)c(=O)c3ccc(C(F)(F)F)nc3n2n1 [Methanesulfonate (crystal form A)] −0.046%

* * *

Protocol Description: Solubility experiment in different media
Assay type: physicochemical
Condition Context: aqueous buffer, thermodynamic from solid, USP Buffer pH 3, room temperature
Measured Endpoint: solubility at 24 h (µg/mL)
Number only, in µg/mL; omit the unit.

Fill in the blank: the reported solubility at 24 h of CS(=O)(=O)O.N#Cc1cc2n(CC(=O)Nc3ccc(F)cn3)c(=O)c3ccc(C(F)(F)F)nc3n2n1 [Methanesulfonate (crystal form A)] is ____. 4.3

* * *

Protocol Description: Hygroscopicity experiment (DVS)
Assay type: physicochemical
Condition Context: Cycle 1, target relative humidity 30.0%, 25° C.
Text: 7.1 Hygroscopicity experiment of crystal forms of different salts of compound 2-(2-cyano-5-oxo-8-(trifluoromethyl)pyrazolo[1,5-a]pyrido[3,2-e]pyrimidin-4(5H)-yl)-N-(5-fluoropyridin-2-yl)acetamide 7.1.1 Experimental objective: To investigate the hygroscopicity of crystal forms of different salts of compound 2-(2-cyano-5-oxo-8-(trifluoromethyl)pyrazolo[1,5-a]pyrido[3,2-e]pyrimidin-4(5H)-yl)-N-(5-fluoropyridin-2-yl)acetamide at different relative humidity, so as to provide a basis for storage. […]
Measured Endpoint: % percentage of mass change, Desorption

Give the measured % percentage of mass change, Desorption of CCS(=O)(=O)O.N#Cc1cc2n(CC(=O)Nc3ccc(F)cn3)c(=O)c3ccc(C(F)(F)F)nc3n2n1 [Ethanesulfonate (crystal form A)] . 0.137%

Please answer likewise for Cl.N#Cc1cc2n(CC(=O)Nc3ccc(F)cn3)c(=O)c3ccc(C(F)(F)F)nc3n2n1 [Hydrochloride (crystal form A)] 7.258%

Cool, now N#Cc1cc2n(CC(=O)Nc3ccc(F)cn3)c(=O)c3ccc(C(F)(F)F)nc3n2n1.O=S(=O)(O)O [Sulfate (crystal form B)] 0.250%

Others:
I am curious: what % percentage of mass change, Desorption value has been reported for CS(=O)(=O)O.N#Cc1cc2n(CC(=O)Nc3ccc(F)cn3)c(=O)c3ccc(C(F)(F)F)nc3n2n1 [Methanesulfonate (crystal form A)] ? 0.133%

* * *

Overview of recorded % percentage of mass change, Sorption for various compounds
Protocol Description: Hygroscopicity experiment (DVS)
Type: physicochemical
Condition Context: Cycle 2, target relative humidity 30.0%, 25° C.
Dear colleague, please return just the value in %, with no unit written.

Some solved cases for reference:
Would you kindly share the measured % percentage of mass change, Sorption for Br.N#Cc1cc2n(CC(=O)Nc3ccc(F)cn3)c(=O)c3ccc(C(F)(F)F)nc3n2n1 [Hydrobromide (crystal form B)] ? 3.900

Check Cl.N#Cc1cc2n(CC(=O)Nc3ccc(F)cn3)c(=O)c3ccc(C(F)(F)F)nc3n2n1 [Hydrochloride (crystal form A)] too. 5.345

Follow-up entry: CS(=O)(=O)O.N#Cc1cc2n(CC(=O)Nc3ccc(F)cn3)c(=O)c3ccc(C(F)(F)F)nc3n2n1 [Methanesulfonate (crystal form A)] 0.118

***
Suppose we examine the compound CCS(=O)(=O)O.N#Cc1cc2n(CC(=O)Nc3ccc(F)cn3)c(=O)c3ccc(C(F)(F)F)nc3n2n1 [Ethanesulfonate (crystal form A)] ; what % percentage of mass change, Sorption value has been reported? 0.127

And N#Cc1cc2n(CC(=O)Nc3ccc(F)cn3)c(=O)c3ccc(C(F)(F)F)nc3n2n1.O=S(=O)(O)O [Sulfate (crystal form B)] ? 0.218

* * *

Protocol Description: Metabolic stability in liver microsome (rat)
Type: in vitro ADME
Condition Context: rat liver microsome, 60 min
# Rat Remaining (%, 60 min) per entry
Give the quantity in %, number only.

The following compounds have reported results that may help.
Which Rat Remaining (%, 60 min) reading was recorded for the compound O=C(Cn1c(=O)c2ccc(C(F)(F)F)nc2n2nc(Br)cc12)Nc1ccc(F)cn1 ? 102.3

Similarly, O=C(Cn1c(=O)c2ccc(C(F)(F)F)nc2n2nccc12)Nc1ccc(F)cn1 ? 98.9

And the next one, N#Cc1cc2n(CC(=O)Nc3ccc(F)cn3)c(=O)c3ccc(C(F)(F)F)nc3n2n1 ? 106.4

Field: next compound
For the compound shown here, CCc1cc2n(CC(=O)Nc3ccc(F)cn3)c(=O)c3ccc(C(F)(F)F)nc3n2n1 , give the reported Rat Remaining (%, 60 min). 104.4

* * *

Protocol Description: Pharmacokinetic assay of the salt forms in rats (10 mg/kg)
Format: in vivo
Condition Context: male, rat, po; SD rats, p.o. 10 mg/kg, plasma, vehicle 0.5% HPMC; read-out: Peak time tmax
Each entry below carries its reported Tmax.
Number in h, nothing else.

Solved cases (2 shown):
GET /values?readout=Tmax&item= N#Cc1cc2n(CC(=O)Nc3ccc(F)cn3)c(=O)c3ccc(C(F)(F)F)nc3n2n1.O=S(=O)(O)O [Sulfate (crystal form B)] 2

Also, CS(=O)(=O)O.N#Cc1cc2n(CC(=O)Nc3ccc(F)cn3)c(=O)c3ccc(C(F)(F)F)nc3n2n1 [Methanesulfonate (crystal form A)] please. 4

Continuing:
Param item = Br.N#Cc1cc2n(CC(=O)Nc3ccc(F)cn3)c(=O)c3ccc(C(F)(F)F)nc3n2n1 [Hydrobromide (crystal form B)] ; retrieve measured Tmax. 1

What about CCS(=O)(=O)O.N#Cc1cc2n(CC(=O)Nc3ccc(F)cn3)c(=O)c3ccc(C(F)(F)F)nc3n2n1 [Ethanesulfonate (crystal form A)] ? 4

* * *

Protocol Description: Hygroscopicity experiment (DVS)
Assay type: physicochemical
Condition Context: Cycle 1, target relative humidity 80.0%, 25° C.
Measured Endpoint: % percentage of mass change, Sorption (%)
Expressed in %, but write only the number.

Return reported % percentage of mass change, Sorption; argument: CS(=O)(=O)O.N#Cc1cc2n(CC(=O)Nc3ccc(F)cn3)c(=O)c3ccc(C(F)(F)F)nc3n2n1 [Methanesulfonate (crystal form A)] 0.446

Also Cl.N#Cc1cc2n(CC(=O)Nc3ccc(F)cn3)c(=O)c3ccc(C(F)(F)F)nc3n2n1 [Hydrochloride (crystal form A)] ? 7.840

Then what about the compound CCS(=O)(=O)O.N#Cc1cc2n(CC(=O)Nc3ccc(F)cn3)c(=O)c3ccc(C(F)(F)F)nc3n2n1 [Ethanesulfonate (crystal form A)] ? 0.572

Repeat for the following compound: N#Cc1cc2n(CC(=O)Nc3ccc(F)cn3)c(=O)c3ccc(C(F)(F)F)nc3n2n1.O=S(=O)(O)O [Sulfate (crystal form B)] 0.691

Try the compound Br.N#Cc1cc2n(CC(=O)Nc3ccc(F)cn3)c(=O)c3ccc(C(F)(F)F)nc3n2n1 [Hydrobromide (crystal form B)] 4.529

* * *

Protocol Description: Hygroscopicity experiment (DVS)
Format: physicochemical
Condition Context: Cycle 2, target relative humidity 80.0%, 25° C.
Measured Endpoint: % percentage of mass change, Desorption (%)
Your answer should be a plain number; it is taken to be in %.

I am curious: what % percentage of mass change, Desorption value has been reported for Cl.N#Cc1cc2n(CC(=O)Nc3ccc(F)cn3)c(=O)c3ccc(C(F)(F)F)nc3n2n1 [Hydrochloride (crystal form A)] ? 7.872

Next record, please: CCS(=O)(=O)O.N#Cc1cc2n(CC(=O)Nc3ccc(F)cn3)c(=O)c3ccc(C(F)(F)F)nc3n2n1 [Ethanesulfonate (crystal form A)] 0.584

Next:
Fill in the blank: the reported % percentage of mass change, Desorption of N#Cc1cc2n(CC(=O)Nc3ccc(F)cn3)c(=O)c3ccc(C(F)(F)F)nc3n2n1.O=S(=O)(O)O [Sulfate (crystal form B)] is ____. 0.761

Subsequent entry: CS(=O)(=O)O.N#Cc1cc2n(CC(=O)Nc3ccc(F)cn3)c(=O)c3ccc(C(F)(F)F)nc3n2n1 [Methanesulfonate (crystal form A)] 0.480
